# Assay comment: blockers of an Epstein-Barr virus protein-peptide interaction – biochemical, fluorescence polarization, dose response (AID 1419)
# Stated conditions: cell-free protein-peptide binding, 2 h
Reported pIC50 values for the following compounds.
Quick note: pIC50 means taking -log10 of the concentration in moles per liter.

The following compounds have reported results that may help.
# Compound, Measured parameter, Observed
measured = [
    ("C=CCn1c(O)c(N=Nc2ccccc2C)c2ccccc21", "pIC50", 4.83),
    ("COc1ccc2nc(-n3c(O)c(C4=c5ccccc5=NC4=O)[nH]c3=S)sc2c1", "pIC50", 5.46),
]

Attention now shifts to the item below.
Exam item: Reported pIC50, compound N#CC1=C(N)Oc2ccc3ccc(O)cc3c2C1c1ccsc1 (stereo not drawn) : ____
Marked response: 5.71
